measurementTarget: Mouse ERK2 protein (Mus musculus (Mouse))
Sequence (P63085 whole entry): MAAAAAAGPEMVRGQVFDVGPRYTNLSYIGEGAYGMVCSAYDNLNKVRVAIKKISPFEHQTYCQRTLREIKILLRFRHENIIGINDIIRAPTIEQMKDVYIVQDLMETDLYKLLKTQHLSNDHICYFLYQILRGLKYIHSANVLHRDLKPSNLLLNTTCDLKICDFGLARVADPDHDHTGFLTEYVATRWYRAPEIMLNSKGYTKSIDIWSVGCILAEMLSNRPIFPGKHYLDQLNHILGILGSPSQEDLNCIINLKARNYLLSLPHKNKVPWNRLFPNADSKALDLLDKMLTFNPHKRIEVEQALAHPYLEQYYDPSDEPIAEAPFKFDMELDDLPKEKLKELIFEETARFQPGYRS
assay: Coupled MEK1/ERK2 IMAP assay or Active ERK2 IMAP assay
Format: biochemical
conditionInfo: Table 1, class symbols, 30 μM ATP
Documented IC50 across a set of molecules

- molecule: "Cc1cc(-c2n[nH]c3c2CN(C(=O)N[C@@H]2CC[C@H]4CC[C@@H]2N4Cc2c(F)cccc2F)CC3)ccn1 [Compound 178]"
  measurementTarget: "Mouse ERK2 protein (Mus musculus (Mouse))"
  IC50: "< 20 nM"
- molecule: "Cn1cnc(CN2CCC[C@@H](NC(=O)N3CCc4[nH]nc(-c5ccncc5)c4C3)C2)c1 [Compound 64]"
  measurementTarget: "Mouse ERK2 protein (Mus musculus (Mouse))"
  IC50: "101 to 1000 nM"
- molecule: "Cn1cc2cc(-c3n[nH]c4c3CN(C(=O)N[C@@H]3CCCN(Cc5c(F)cccc5F)C3)CC4)ccc2n1 [Compound 133]"
  measurementTarget: "Mouse ERK2 protein (Mus musculus (Mouse))"
  IC50: "21 to 100 nM"
- molecule: "COc1ccc(-c2n[nH]c3c2CN(C(=O)N[C@@H]2CCCN(Cc4c(F)cccc4F)C2)CC3)cn1 [Compound 132]"
  measurementTarget: "Mouse ERK2 protein (Mus musculus (Mouse))"
  IC50: "21 to 100 nM"
- molecule: "Cn1ncc2cc(-c3n[nH]c4c3CN(C(=O)N[C@@H]3CCCN(Cc5c(F)cccc5F)C3)CC4)ccc21 [Compound 134]"
  measurementTarget: "Mouse ERK2 protein (Mus musculus (Mouse))"
  IC50: "21 to 100 nM"
- molecule: "O=C(Cc1ccccc1F)N1CCc2[nH]nc(-c3ccncc3)c2C1 [Compound 24]"
  measurementTarget: "Mouse ERK2 protein (Mus musculus (Mouse))"
  IC50: "101 to 1000 nM"
- molecule: "Cc1cc(-c2n[nH]c3c2CN(C(=O)NC2CC(C)CN(Cc4cnc5ccccc5c4)C2)CC3)ccn1 (stereo not shown) [Compound 96]"
  measurementTarget: "Mouse ERK2 protein (Mus musculus (Mouse))"
  IC50: "101 to 1000 nM"
